- test.details: Oral bioavailability in dog at 1 mg/kg
- Type: ADME, organism-based, Canis lupus familiaris
- condition.label: in vivo
result.type: bioavailability (%)
Your answer should be a plain number; it is taken to be in %.

Entry Cc1cc(F)ccc1[C@H]1C[C@H](N2CCN3C(=O)CC[C@H]3C2)CCN1C(=O)N(C)[C@H](C)c1cc(C(F)(F)F)cc(C(F)(F)F)c1 needs its bioavailability filled in; supply it. 28

Entry CC(=O)N1CCN([C@H]2CCN(C(=O)N(C)[C@H](C)c3cc(C(F)(F)F)cc(C(F)(F)F)c3)[C@@H](c3ccc(F)cc3C)C2)CC1 needs its bioavailability filled in; supply it. 34

Entry Cc1cc(F)ccc1[C@H]1C[C@@H](N2CCN3C(=O)CC[C@H]3C2)CCN1C(=O)N(C)[C@H](C)c1cc(C(F)(F)F)cc(C(F)(F)F)c1 [ORVEPITANT] needs its bioavailability filled in; supply it. 55
